- ASSAY_TEXT: Plasma pharmacokinetics by LC-MS/MS
- CONDITION_CONTEXT: human, plasma, oral, AUC0→∞, capecitabine 1,000 mg/m^2 in combination with 250 mg gefitinib, C1D1; mean ± SD in 8 patients
OBSERVED_PROPERTY: AUC(0-inf)

Q) Form field: reported AUC(0-inf) of CCCCCOC(=O)Nc1nc(=O)n([C@@H]2O[C@H](C)[C@@H](O)[C@H]2O)cc1F [capecitabine]
A) 13.2 µM·h

----------
- ASSAY_TEXT: Plasma pharmacokinetics by LC-MS/MS
- CONDITION_CONTEXT: human, plasma, oral, 1000 mg/m^2
OBSERVED_PROPERTY: Vd/F (L)
Kindly provide the numeric value in L only, without the unit symbol.

Q) Form field: reported Vd/F of CCCCCOC(=O)Nc1nc(=O)n([C@@H]2O[C@H](C)[C@@H](O)[C@H]2O)cc1F
A) 363
